ASSAY METHOD TEXT: in vitro
CONDITION PARAMETERS: mouse, liver microsomes, pH 7.47
READOUT: half-life at 1 µM (min)

1. CCOc1cccc(Nc2nn(C)c3c2Cc2cc(OCC)c(OCC(=O)NO)cc2-3)c1    17.8
2. CCOc1cccc(Nc2nn(C)c3c2Cc2cc(OCC)c(OCC(N)=O)cc2-3)c1    55.3

====

ASSAY METHOD TEXT: In vivo pharmacokinetic test, drug concentration in blood plasma by LC-MS/MS
Design: species or system SD rats
CONDITION PARAMETERS: SD, rat, plasma, po, 10 mg/kg, SD rats, oral 10 mg/kg, 0.5 h, animal 203M
READOUT: concentration at 0.5 h (ng/mL)

1. CCOc1cccc(Nc2nn(C)c3c2Cc2cc(OCC)c(OCC(N)=O)cc2-3)c1    339
